- Assay procedure: in vitro
- Test settings: human, hela cells, % viability
Measured quantity: viability at 28.5 h, 10 µM (%)
Numbers only, in %.

Guide cases for viability at 28.5 h, 10 µM, answers given:
Molecule	Unit of measure	viability at 28.5 h, 10 µM
CN1C[C@@H](NC(=O)COc2ccccc2)C[C@H]1c1nc(-c2ccncc2)no1	%	90.4
CCn1c(=O)n(CC(=O)NCc2cccs2)c2cccnc21	%	88.3
COc1ccc(S(=O)(=O)N(CC(=O)O)c2ccc(Cl)cc2)cc1OC	%	97.5

For every record below, what is its viability at 28.5 h, 10 µM?
1. CCNc1nccnc1-c1ccc(O)cc1
2. Cn1nc(C(C)(C)C)c2cc(C(=O)N3CCCc4occc4C3)cnc21
3. COc1ccccc1-c1[nH]nc(O)c1Cc1c(Cl)cccc1Cl
4. O=C(COc1ccc(-c2ccccc2)cc1Cl)N1CCN(C(=O)C2CC2)CC1

Result:
1: 108; 2: 97.7; 3: 86.1; 4: 96.8

For every record below, what is its viability at 28.5 h, 10 µM?
1. COc1ccc(NC(=S)NC(=N)N2CCN(Cc3ccccc3)CC2)cc1
2. OC(Cn1ccnc1)C1CCCCC1 (stereo not shown)
3. O=C(O)c1ccc(CN2C[C@H](O)C[C@H]2c2nc(-c3ccc(F)cc3)no2)cc1

Result:
[95.1, 78.3, 112]
